Cited source: patent US20100248272A1

- tested.target: full-length E. faecalis metK RNA (wild-type 15-118 metK leader sequence)
- protocol: Apparent Kd determination by size-exclusion filtration (modified SAM binding assay)
- test.context: full-length transcript, positions 15-118; [3H]-SAM

| compound | uom | Kd |
| --- | --- | --- |
| C[S+](CC[C@H](N)C(=O)[O-])C[C@H]1O[C@@H](n2cnc3c(N)ncnc32)[C@H](O)[C@@H]1O (stereo partly shown) [SAM, S-adenosyl methionine] | nM | 850 |
